Log Kw values for the molecules below.
- experiment notes: Lipophilicity relative to cAMP (log Kw=1)
- Type: physicochemical

Past entries and their recorded results:
molecule="CC(=O)OCOP1(=O)OC[C@@H]2O[C@@H](n3c(Br)nc4c(N)ncnc43)[C@H](O)[C@@H]2O1 (some centres undefined)" reported_endpoint="Log Kw" test_result="> 2"
molecule="CC(=O)OCOP1(=O)OC[C@@H]2O[C@@H](n3c(NCCO)nc4c(N)ncnc43)[C@H](O)[C@@H]2O1 (some centres undefined)" reported_endpoint="Log Kw" test_result="> 2"
molecule="CC(=O)OCOP1(=O)OC[C@@H]2O[C@@H](n3c(N4CCCCC4)nc4c(N)ncnc43)[C@H](O)[C@@H]2O1 (some centres undefined)" reported_endpoint="Log Kw" test_result="> 3.5"

We now examine a further molecule.
Exercise: Value lookup for Log Kw; key = CC(=O)OCOP1(=O)OC[C@@H]2O[C@@H](n3c(Sc4ccc(Cl)cc4)nc4c(N)ncnc43)[C@H](O)[C@@H]2O1 (some centres undefined)
Solution: > 4
